- System: PLC-PRF-5 cells
- assay_name: Inhibition of proliferation of PLC-PRF-5 cells (ATPlite)
- Format: cell-based
- study_conditions: Homo sapiens, PLC-PRF-5, PLC-PRF-5 cells; read-out: PLC-PRF-5 cell proliferation IC50
Kindly state pIC50 for each of the entries shown.
Give bare numbers, as −log10 of the molar value.

CN1CCC(c2ccc(NC(=O)Nc3ccc(Oc4ccnc(NC(=O)C5CC5)c4)c(F)c3)cc2C(F)(F)F)CC1; 5.62
O=C(Nc1ccc(Oc2ccnc(NC(=O)C3CC3)c2)cc1)Nc1cc(OCC2CNC2)cc(C(F)(F)F)c1; 4.83
Cc1cc(Oc2cc(NC(=O)C3CC3)ncn2)ccc1NC(=O)Nc1ccc(C)c(C(F)(F)F)c1; 5.15

Problem: Any idea what its pIC50 is? The molecule is O=C(Nc1ccc(Oc2ccnc(NC(=O)C3CC3)c2)cc1)Nc1ccc(Cl)c(C(F)(F)F)c1
Result: 5.22
